Provide the recorded ka for the entries that follow.
# Tested target: T1, Human in house BCMA (Homo sapiens, UniProt Q02223)
# T1 construct: CD33 signal peptide (N); TEV site (internal); Fc (C); made in house
# T1 sequence (Q02223 with tags, fused parts or gaps limits assumed): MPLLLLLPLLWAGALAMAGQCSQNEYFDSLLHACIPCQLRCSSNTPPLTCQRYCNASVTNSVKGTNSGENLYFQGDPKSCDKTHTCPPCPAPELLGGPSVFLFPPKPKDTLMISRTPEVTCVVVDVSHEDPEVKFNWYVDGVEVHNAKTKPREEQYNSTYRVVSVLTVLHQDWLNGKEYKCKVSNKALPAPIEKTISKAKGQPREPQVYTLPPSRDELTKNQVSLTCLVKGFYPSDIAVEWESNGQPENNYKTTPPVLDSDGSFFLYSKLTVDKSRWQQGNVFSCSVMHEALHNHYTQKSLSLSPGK
# Experiment summary: ProteOn analysis of CA8 chimeric and humanised constructs, human in house BCMA
# Format: binding
# Run conditions: Run 1, Human in house BCMA, ProteOn, 25° C.; in M-1s-1 (unit assumed)
One number for each entry.

CA8 humanised J5M1: humanised CA8 anti-BCMA antibody, VH J5 (SEQ ID NO:21) + VL M1 (SEQ ID NO:33) (antibody, V domains shown, Humansed antibody sequence) VH: QVQLVQSGAEVKKPGSSVKVSCKGSGYTFTNYWMHWVRQAPGQGLEWMGATYRGHSDTYYNQKFKGRVTITADTSTSTAYMELSSLRSEDTAVYYCTRGAIYDGYDVLDNWGQGTLVTVSS VL: DIQMTQSPSSLSASVGDRVTITCSASQDISNYLNWYQQKPGKAPKLLIYYTSNLHSGVPSRFSGSGSGTDYTLTISSLQPEDFATYYCQQYRKLPWTFGQGTKLEIKR
2.97E+05
CA8 humanised J4M1: humanised CA8 anti-BCMA antibody, VH J4 (SEQ ID NO:19) + VL M1 (SEQ ID NO:33) (antibody, V domains shown, Humansed antibody sequence) VH: QVQLVQSGAEVKKPGSSVKVSCKGSGYTFTNYWMHWVRQAPGQGLEWIGATYRGHSDTYYNQKFKGRATLTADTSTSTAYMELSSLRSEDTAVYYCTRGAIYNGYDVLDNWGQGTLVTVSS VL: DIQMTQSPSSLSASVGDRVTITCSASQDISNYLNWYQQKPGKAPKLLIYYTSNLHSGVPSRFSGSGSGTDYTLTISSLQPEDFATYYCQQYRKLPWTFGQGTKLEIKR
2.54E+05

Lab note: CA8 humanised J1M1: humanised CA8 anti-BCMA antibody, VH J1 (SEQ ID NO:13) + VL M1 (SEQ ID NO:33) (antibody, V domains shown, Humansed antibody sequence) VH: QVQLVQSGAEVKKPGSSVKVSCKASGYTFTNYWMHWVRQAPGQGLEWMGATYRGHSDTYYNQKFKGRVTITADKSTSTAYMELSSLRSEDTAVYYCARGAIYNGYDVLDNWGQGTLVTVSS VL: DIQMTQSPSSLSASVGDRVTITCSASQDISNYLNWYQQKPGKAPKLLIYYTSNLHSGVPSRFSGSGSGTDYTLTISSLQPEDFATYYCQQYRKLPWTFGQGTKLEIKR gave ka of 2.27E+05
